All values here come from ChEMBL document CHEMBL4699453.

target: Albumin (Bos taurus, UniProt P02769); assay: Binding affinity to bovine serum albumin assessed as Stem-Volmer quenching constant by fluorescence based Stern-Volmer plot analysis; conditions: cattle
Sequence (P02769 whole entry): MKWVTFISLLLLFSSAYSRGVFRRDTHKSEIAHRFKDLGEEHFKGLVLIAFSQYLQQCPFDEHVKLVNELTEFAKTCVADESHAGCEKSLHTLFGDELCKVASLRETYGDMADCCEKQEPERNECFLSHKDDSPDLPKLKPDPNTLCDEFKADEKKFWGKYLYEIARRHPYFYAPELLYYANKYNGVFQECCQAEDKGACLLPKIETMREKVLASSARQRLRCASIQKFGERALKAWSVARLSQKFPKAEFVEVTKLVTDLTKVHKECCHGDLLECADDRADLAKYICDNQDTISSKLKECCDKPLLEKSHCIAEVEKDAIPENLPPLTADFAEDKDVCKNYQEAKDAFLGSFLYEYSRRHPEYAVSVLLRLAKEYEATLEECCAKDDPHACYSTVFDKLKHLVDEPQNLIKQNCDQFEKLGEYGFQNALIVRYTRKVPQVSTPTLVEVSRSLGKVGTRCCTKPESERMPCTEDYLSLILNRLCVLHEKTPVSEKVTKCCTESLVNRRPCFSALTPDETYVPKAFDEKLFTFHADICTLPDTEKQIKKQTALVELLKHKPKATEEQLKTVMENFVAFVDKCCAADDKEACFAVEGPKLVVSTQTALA
# key: entry, value: KSV

SUBSTANCE SMILES: CCCCCCCCCCCCCCCC(=O)Nc1ccc(-c2c3nc(c(-c4ccccc4)c4ccc([nH]4)c(-c4ccccc4)c4nc(c(-c5ccccc5)c5ccc2[nH]5)C=C4)C=C3)cc1
KSV: 4.09 10^4L/mol

SUBSTANCE SMILES: CC(=O)NC1=Cc2nc1c(-c1ccccc1)c1ccc([nH]1)c(-c1ccccc1)c1nc(c(-c3ccccc3)c3ccc([nH]3)c2-c2ccccc2)C=C1
KSV: 4.33 10^4L/mol

SUBSTANCE SMILES: CCCCCCCCCCCCCCCC(=O)NC1=Cc2nc1c(-c1ccccc1)c1ccc([nH]1)c(-c1ccccc1)c1nc(c(-c3ccccc3)c3ccc([nH]3)c2-c2ccccc2)C=C1
KSV: 3.03 10^4L/mol

query: Which KSV value belongs to CC(=O)Nc1ccc(-c2c3nc(c(-c4ccccc4)c4ccc([nH]4)c(-c4ccccc4)c4nc(c(-c5ccccc5)c5ccc2[nH]5)C=C4)C=C3)cc1 ?
result: 4.96 10^4L/mol

---

experiment: Drug uptake in human MCF7 cells at 10 uM incubated for 24 hrs by fluorescence based assay; type: ADME, cell-based; conditions: mcf7, 24 h
OUTCOME MEASURE: Drug uptake

Solved cases below.
SUBSTANCE SMILES: CCCCCCCCCCCCCCCC(=O)Nc1ccc(-c2c3nc(c(-c4ccccc4)c4ccc([nH]4)c(-c4ccccc4)c4nc(c(-c5ccccc5)c5ccc2[nH]5)C=C4)C=C3)cc1
Drug uptake: 4.4 10^-2microM

SUBSTANCE SMILES: CC(=O)NC1=Cc2nc1c(-c1ccccc1)c1ccc([nH]1)c(-c1ccccc1)c1nc(c(-c3ccccc3)c3ccc([nH]3)c2-c2ccccc2)C=C1
Drug uptake: 4.3 10^-2microM

SUBSTANCE SMILES: CC(=O)Nc1ccc(-c2c3nc(c(-c4ccccc4)c4ccc([nH]4)c(-c4ccccc4)c4nc(c(-c5ccccc5)c5ccc2[nH]5)C=C4)C=C3)cc1
Drug uptake: 5.8 10^-2microM

Note: attention shifts to another entry.
query: Look up Drug uptake for this compound: CCCCCCCCCCCCCCCC(=O)NC1=Cc2nc1c(-c1ccccc1)c1ccc([nH]1)c(-c1ccccc1)c1nc(c(-c3ccccc3)c3ccc([nH]3)c2-c2ccccc2)C=C1
result: 1.7 10^-2microM

---

target: Albumin (Bos taurus, UniProt P02769); test: Binding affinity to bovine serum albumin assessed as binding constant by fluorescence based Stern-Volmer plot analysis; details: cattle
Documented Ka across a set of molecules

SUBSTANCE SMILES: CC(=O)NC1=Cc2nc1c(-c1ccccc1)c1ccc([nH]1)c(-c1ccccc1)c1nc(c(-c3ccccc3)c3ccc([nH]3)c2-c2ccccc2)C=C1
ASSAY TARGET: Albumin (Bos taurus, UniProt P02769)
Ka: 2.86 10^4L/mol
--
SUBSTANCE SMILES: CCCCCCCCCCCCCCCC(=O)NC1=Cc2nc1c(-c1ccccc1)c1ccc([nH]1)c(-c1ccccc1)c1nc(c(-c3ccccc3)c3ccc([nH]3)c2-c2ccccc2)C=C1
ASSAY TARGET: Albumin (Bos taurus, UniProt P02769)
Ka: 1.98 10^4L/mol
--
SUBSTANCE SMILES: CC(=O)Nc1ccc(-c2c3nc(c(-c4ccccc4)c4ccc([nH]4)c(-c4ccccc4)c4nc(c(-c5ccccc5)c5ccc2[nH]5)C=C4)C=C3)cc1
ASSAY TARGET: Albumin (Bos taurus, UniProt P02769)
Ka: 3.84 10^4L/mol

query: Quick one: Ka for CCCCCCCCCCCCCCCC(=O)Nc1ccc(-c2c3nc(c(-c4ccccc4)c4ccc([nH]4)c(-c4ccccc4)c4nc(c(-c5ccccc5)c5ccc2[nH]5)C=C4)C=C3)cc1 ?
result: 3.12 10^4L/mol

---

test: Drug uptake in human MCF7 cells at 10 uM incubated for 2 hrs by fluorescence based assay; type: ADME, cell-based; settings: mcf7, 2 h
OUTCOME MEASURE: Drug uptake

Answered cases to consult:
SUBSTANCE SMILES: CC(=O)NC1=Cc2nc1c(-c1ccccc1)c1ccc([nH]1)c(-c1ccccc1)c1nc(c(-c3ccccc3)c3ccc([nH]3)c2-c2ccccc2)C=C1
Drug uptake: 3.3 10^-2microM
--
SUBSTANCE SMILES: CCCCCCCCCCCCCCCC(=O)NC1=Cc2nc1c(-c1ccccc1)c1ccc([nH]1)c(-c1ccccc1)c1nc(c(-c3ccccc3)c3ccc([nH]3)c2-c2ccccc2)C=C1
Drug uptake: 1.7 10^-2microM

query: Entry CCCCCCCCCCCCCCCC(=O)Nc1ccc(-c2c3nc(c(-c4ccccc4)c4ccc([nH]4)c(-c4ccccc4)c4nc(c(-c5ccccc5)c5ccc2[nH]5)C=C4)C=C3)cc1 : reported Drug uptake = ?
result: 3 10^-2microM

query: What does the data say about its Drug uptake? Entry: CC(=O)Nc1ccc(-c2c3nc(c(-c4ccccc4)c4ccc([nH]4)c(-c4ccccc4)c4nc(c(-c5ccccc5)c5ccc2[nH]5)C=C4)C=C3)cc1
result: 5.8 10^-2microM
